Biological target: Melatonin receptor type 1B (Homo sapiens)
Sequence (P49286 whole entry): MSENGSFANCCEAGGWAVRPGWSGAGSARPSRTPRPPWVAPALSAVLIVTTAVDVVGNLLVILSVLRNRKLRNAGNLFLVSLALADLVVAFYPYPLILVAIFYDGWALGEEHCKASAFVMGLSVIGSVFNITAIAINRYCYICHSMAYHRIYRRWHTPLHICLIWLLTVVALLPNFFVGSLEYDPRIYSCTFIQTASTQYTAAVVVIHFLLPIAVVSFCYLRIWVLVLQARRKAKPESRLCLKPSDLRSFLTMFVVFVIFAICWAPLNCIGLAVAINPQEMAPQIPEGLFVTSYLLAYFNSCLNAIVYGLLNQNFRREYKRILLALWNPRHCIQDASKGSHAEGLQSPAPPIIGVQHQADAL
Assay: Agonist activity at human melatonin receptor-2 transfected in CHO cell membranes after 1 hr by GTPgammaS binding assay
Format: functional
One threshold, 100 nM, splits the recorded EC50 values: lower ones are true (1), equal or higher ones are false (0).

Use the examples below as a reference point.
{"MOL_SMILES": "COc1ccc2[nH]cc(Cc3n[nH]c(=O)o3)c2c1", "MEASUREMENT_TARGET": "Melatonin receptor type 1B (Homo sapiens)", "LABEL_VALUE": "false (0)"}
{"MOL_SMILES": "COc1ccc2[nH]cc(CCc3ncc(C)o3)c2c1", "MEASUREMENT_TARGET": "Melatonin receptor type 1B (Homo sapiens)", "LABEL_VALUE": "false (0)"}
{"MOL_SMILES": "COc1ccc2[nH]cc(CCN(C)C)c2c1", "MEASUREMENT_TARGET": "Melatonin receptor type 1B (Homo sapiens)", "LABEL_VALUE": "false (0)"}
{"MOL_SMILES": "COc1ccc2[nH]cc(CCc3nnco3)c2c1", "MEASUREMENT_TARGET": "Melatonin receptor type 1B (Homo sapiens)", "LABEL_VALUE": "false (0)"}

Consider CCNc1nnc(Cc2c[nH]c3ccc(OC)cc23)s1 . Does its EC50 lie strictly below 100 nM?
false (0)

Now give it for COc1ccc2[nH]cc(Cc3n[nH]c(=O)n3C)c2c1 too.
false (0)

Now give it for CCn1c(Cc2c[nH]c3ccc(OC)cc23)n[nH]c1=S too.
false (0)

Now give it for C#CCNC(=O)Cc1c[nH]c2ccc(OC)cc12 too.
true (1)

Now give it for C=CCNC(=O)Cc1c[nH]c2ccc(OC)cc12 too.
false (0)

Now give it for COc1ccc2[nH]cc(CCc3nnc(C)o3)c2c1 too.
false (0)

Now give it for COc1ccc2[nH]cc(Cc3nnc(C)o3)c2c1 too.
true (1)

Now give it for COc1ccc2[nH]cc(CCc3n[nH]c(=S)o3)c2c1 too.
false (0)

====

target: Melatonin receptor type 1A (Homo sapiens, UniProt P48039); experiment: Agonist activity at human melatonin receptor-1 transfected in CHO cell membranes after 1 hr by GTPgammaS binding assay; type: functional
Sequence (P48039 whole entry): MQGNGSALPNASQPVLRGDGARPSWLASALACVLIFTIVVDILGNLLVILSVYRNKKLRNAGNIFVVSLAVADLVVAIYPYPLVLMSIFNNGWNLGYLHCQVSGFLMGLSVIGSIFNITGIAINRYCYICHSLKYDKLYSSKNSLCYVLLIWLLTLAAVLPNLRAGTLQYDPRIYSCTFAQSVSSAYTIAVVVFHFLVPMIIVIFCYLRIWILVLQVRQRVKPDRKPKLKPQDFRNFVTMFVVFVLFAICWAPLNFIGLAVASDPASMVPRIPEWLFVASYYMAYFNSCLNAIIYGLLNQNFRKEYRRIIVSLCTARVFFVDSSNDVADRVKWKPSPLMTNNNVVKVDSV
Attribute: pEC50
A value of pEC50 is the negative decimal logarithm of a concentration given in moles per litre.

Example entries begin here.
{"MOL_SMILES": "COc1ccc2[nH]cc(CCc3n[nH]c(=O)o3)c2c1", "READOUT_VALUE": 6.49}
{"MOL_SMILES": "C=CCNC(=O)CCc1c[nH]c2ccc(OC)cc12", "READOUT_VALUE": 6.69}
{"MOL_SMILES": "COc1ccc2[nH]cc(CCc3nnc(C)o3)c2c1", "READOUT_VALUE": 6.02}
{"MOL_SMILES": "C=CCNC(=O)Cc1c[nH]c2ccc(OC)cc12", "READOUT_VALUE": 6.28}
{"MOL_SMILES": "C#CCNC(=O)Cc1c[nH]c2ccc(OC)cc12", "READOUT_VALUE": 6.54}

# query: pEC50 | item COc1ccc2[nH]cc(Cc3nc(C)no3)c2c1 | system: Melatonin receptor type 1A (Homo sapiens, UniProt P48039)
6.15

Now give it for COc1ccc2[nH]cc(CCN(C)C)c2c1 too.
6.59

Now give it for COc1ccc2[nH]cc(Cc3ncc(C)o3)c2c1 too.
6.00
